Data credit: ChEMBL document CHEMBL4334518

Assay: Half life in human liver microsomes at 5 to 10 uM measured for 120 mins in presence of NADPH by RP-HPLC analysis
Type: ADME, Microsome
metric: half-life

The reported half-life of the compound O=C(CCCCCCCCCCCCCCC[P+](c1ccccc1)(c1ccccc1)c1ccccc1)c1ccc(O)cc1O.[Br-] was > 2 h

* * *

Assay: Selectivity index, ratio of EC50 for cytotoxicity against human THP1 cells to EC50 for antileishmanial activity against Leishmania donovani MHOM/ET/67/HU3 amastigotes infected in human THP1 cells
Assay type: toxicity, cell-based
Conditions: read-out: Ratio EC50
metric: selectivity ratio

// solved cases for selectivity ratio follow
The reported selectivity ratio of the compound O=C(OCCCCCCCCCCCC[n+]1cccc2ccccc21)c1ccc(O)cc1O was 3.7 to 5

The reported selectivity ratio of the compound O=Cc1ccc(OCCCCCCCCCCCCCC[n+]2cccc3ccccc32)cc1O was 3.7 to 5

The reported selectivity ratio of the compound O=C(CCCCCCCCCCCCCCC[P+](c1ccccc1)(c1ccccc1)c1ccccc1)c1ccc(O)cc1O.[Br-] was 31.2

The reported selectivity ratio of the compound Cc1cc(O)ccc1C(=O)OCCCCCCCCCCCCCC[P+](c1ccccc1)(c1ccccc1)c1ccccn1 was 19.6

Field: selectivity ratio. Fill in for each record below.
1. COC(=O)c1ccc(OCCCCCCCCCC[P+](c2ccccc2)(c2ccccc2)c2ccccc2)cc1O
2. OCCCCCCCCCCCCCC[P+](c1ccccc1)(c1ccccc1)c1ccccc1
3. O=Cc1ccc(OCCCCCCCCCCCCCC[P+](c2ccccc2)(c2ccccc2)c2ccccc2)cc1O
4. Cc1cc(O)ccc1C(=O)CCCCCCCCCCCCCCC[P+](c1ccccc1)(c1ccccc1)c1ccccn1.[Br-]
5. Cc1cc(O)ccc1C(=O)CCCCCCCCCCCCCCC[P+](c1ccccc1)(c1ccccc1)c1ccccc1.[Br-]

1: 2 to 27; 2: 8.7; 3: 2 to 27; 4: 21.1; 5: 24.5
